# protocol: Displacement of [3H]Nitrendipine from L-type calcium channel dihydropyridine binding site in Wistar rat cerebral cortex after 90 mins
# Format: tissue-based

[
  {
    "compound": "CCOC(=O)C1=C(C)NC(C)=C(C(=O)OC)C1c1cccc([N+](=O)[O-])c1 (stereo unspecified)",
    "Ki / nM": 0.46
  }
]

* * *

# protocol: Displacement of [3H]GABA from GABA transporter in Wistar rat cerebral cortex after 20 mins
# Format: tissue-based
pKi: −log10 of the molar value.
reported_metric: pKi

[
  {
    "mol_smiles": "O=C(O)C1=CCCN(CCON=C(c2ccccc2)c2ccccc2)C1",
    "value_reported": 6.70
  }
]

* * *

# protocol: Plasma protein binding in human
# Assay type: ADME, cell-free
# test_settings: read-out: PPB (converted)

[
  {
    "mol_smiles": "CCc1ccc(/C=C/C(=O)NC2=NCCS2)cc1",
    "fraction unbound": 0.034
  }
]

* * *

# protocol: Chemical stability of the compound in PBS after 48 hrs at pH 7.4 by UPLC/MS analysis
# Assay type: physicochemical
# test_settings: read-out: Stability

[
  {
    "mol_smiles": "CCc1ccc(/C=C/C(=O)NC2=NCCS2)cc1",
    "unit_abbrev": "%",
    "remaining at 48 h": 75
  }
]

* * *

# system_name: Glutamate NMDA receptor
# protocol: Displacement of [3H]MDL105519 from NMDA receptor glycine binding site in Wistar rat cerebral cortex after 30 mins
pKi: −log10 of the molar value.

[
  {
    "mol_smiles": "O=C(O)/C(=C/c1c(C(=O)O)[nH]c2cc(Cl)cc(Cl)c12)c1ccccc1",
    "system_name": "Glutamate NMDA receptor",
    "pKi": 7.68
  }
]

* * *

# protocol: Metabolic stability in human plasma after 5 hrs
# Format: ADME, cell-free
# test_settings: read-out: Stability
reported_metric: remaining at 5 h (%)

[
  {
    "mol_smiles": "CCc1ccc(/C=C/C(=O)NC2=NCCS2)cc1",
    "reported_metric": "remaining at 5 h",
    "unit_abbrev": "%",
    "value_reported": 97.1
  }
]

* * *

# system_name: Substance-P receptor (Homo sapiens, UniProt P25103)
# Sequence (P25103 whole entry): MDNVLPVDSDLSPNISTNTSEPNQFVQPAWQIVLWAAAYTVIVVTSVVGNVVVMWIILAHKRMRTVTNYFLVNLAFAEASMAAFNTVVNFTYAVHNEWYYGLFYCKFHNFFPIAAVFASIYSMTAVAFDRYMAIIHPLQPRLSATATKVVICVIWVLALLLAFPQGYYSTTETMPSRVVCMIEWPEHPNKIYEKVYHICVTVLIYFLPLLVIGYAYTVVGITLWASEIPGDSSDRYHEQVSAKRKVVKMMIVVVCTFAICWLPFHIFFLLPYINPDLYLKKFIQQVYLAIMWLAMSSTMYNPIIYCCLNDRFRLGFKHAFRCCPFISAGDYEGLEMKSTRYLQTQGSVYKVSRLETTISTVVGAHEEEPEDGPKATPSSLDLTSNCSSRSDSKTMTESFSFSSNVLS
# protocol: Displacement of [3H]Substance P from human recombinant substance P receptor expressed in CHO cells after 90 mins
# Format: cell-based

[
  {
    "mol_smiles": "Ic1ccccc1N[C@@H]1C2CCN(CC2)[C@@H]1C(c1ccccc1)c1ccccc1",
    "IC50": "3.6 nM"
  }
]

* * *

# system_name: Substance-P receptor (Homo sapiens, UniProt P25103)
# protocol: Displacement of [3H]Substance P from human recombinant substance P receptor expressed in CHO cells after 90 mins

[
  {
    "mol_smiles": "Ic1ccccc1N[C@@H]1C2CCN(CC2)[C@@H]1C(c1ccccc1)c1ccccc1",
    "system_name": "Substance-P receptor (Homo sapiens, UniProt P25103)",
    "Ki, nM": 2.6
  }
]

* * *

# protocol: Solubility in PBS at 100 uM after 24 hrs at pH 7.4 by UPLC-MS analysis
# Type: physicochemical
Reported solubility at 24 h, 100 µM by item:
reported_metric: solubility at 24 h, 100 µM (µM)

[
  {
    "mol_smiles": "CCc1ccc(/C=C/C(=O)NC2=NCCS2)cc1",
    "reported_metric": "solubility at 24 h, 100 µM",
    "sign": "=",
    "value_reported": 11.5
  },
  {
    "mol_smiles": "CC(C)c1ccc(/C=C/C(=O)NC2=NCCS2)cc1",
    "reported_metric": "solubility at 24 h, 100 µM",
    "sign": "<",
    "value_reported": 1
  }
]
